- assaySystem: Hepatocyte growth factor receptor (Homo sapiens) (UniProt P08581);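 also: each value is an averaged inhibition figure for MET, taken as the mean across measurements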
- Sequence (P08581 whole entry): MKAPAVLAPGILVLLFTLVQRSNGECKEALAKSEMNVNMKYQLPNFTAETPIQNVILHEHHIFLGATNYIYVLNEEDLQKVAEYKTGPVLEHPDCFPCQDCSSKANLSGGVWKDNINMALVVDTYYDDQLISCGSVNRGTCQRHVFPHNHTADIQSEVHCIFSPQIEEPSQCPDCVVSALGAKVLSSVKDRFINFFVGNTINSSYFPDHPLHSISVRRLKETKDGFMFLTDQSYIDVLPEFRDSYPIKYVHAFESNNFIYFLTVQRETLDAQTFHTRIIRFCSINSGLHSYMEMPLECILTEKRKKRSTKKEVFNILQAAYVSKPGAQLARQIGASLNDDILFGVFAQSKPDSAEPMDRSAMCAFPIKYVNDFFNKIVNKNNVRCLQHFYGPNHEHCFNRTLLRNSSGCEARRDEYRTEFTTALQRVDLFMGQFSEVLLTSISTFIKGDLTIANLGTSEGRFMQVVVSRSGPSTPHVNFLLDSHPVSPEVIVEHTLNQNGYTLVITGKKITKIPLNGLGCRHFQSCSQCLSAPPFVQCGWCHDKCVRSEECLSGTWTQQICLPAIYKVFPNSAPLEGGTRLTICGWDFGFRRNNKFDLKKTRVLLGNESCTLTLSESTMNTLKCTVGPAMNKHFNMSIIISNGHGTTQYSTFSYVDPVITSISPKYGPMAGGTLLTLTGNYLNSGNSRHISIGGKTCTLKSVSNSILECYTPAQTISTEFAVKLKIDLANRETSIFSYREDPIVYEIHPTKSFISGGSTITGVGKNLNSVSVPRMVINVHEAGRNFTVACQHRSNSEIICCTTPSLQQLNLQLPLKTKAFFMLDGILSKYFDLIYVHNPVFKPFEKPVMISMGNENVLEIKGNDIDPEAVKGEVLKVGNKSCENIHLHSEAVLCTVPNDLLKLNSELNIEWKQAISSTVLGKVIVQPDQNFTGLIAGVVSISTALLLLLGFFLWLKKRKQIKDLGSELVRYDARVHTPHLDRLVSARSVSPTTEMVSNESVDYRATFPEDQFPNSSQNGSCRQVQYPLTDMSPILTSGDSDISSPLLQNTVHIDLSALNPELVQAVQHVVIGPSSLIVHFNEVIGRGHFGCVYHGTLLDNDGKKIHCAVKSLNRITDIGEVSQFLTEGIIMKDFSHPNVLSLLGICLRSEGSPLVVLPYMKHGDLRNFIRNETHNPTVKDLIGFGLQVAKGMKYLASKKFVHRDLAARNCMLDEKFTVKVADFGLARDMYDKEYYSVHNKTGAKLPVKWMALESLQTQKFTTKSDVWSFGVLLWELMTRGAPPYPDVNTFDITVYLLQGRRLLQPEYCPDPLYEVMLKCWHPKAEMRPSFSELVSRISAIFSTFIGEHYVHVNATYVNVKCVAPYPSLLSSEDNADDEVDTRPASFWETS
- conditionSet: at 1 µM
measuredQuantity: inhibition (%)
API: value field is a number in %; no unit string.

structureSmilesString	assaySystem	unitSpec	inhibition
CCn1c(-c2nonc2N)nc2c(C#CC(C)(C)O)ncc(OC3CCNCC3)c21	Hepatocyte growth factor receptor (Homo sapiens) (UniProt P08581)	%	-3.51
c1ccc(COc2ccc(Nc3ncnc4ccc(-c5ccco5)cc34)cc2)cc1	Hepatocyte growth factor receptor (Homo sapiens) (UniProt P08581)	%	2.85
COc1cc2c(cc1Nc1nc(Nc3ccsc3C(N)=O)c3cc[nH]c3n1)N(C(=O)CN(C)C)CCC2(C)C	Hepatocyte growth factor receptor (Homo sapiens) (UniProt P08581)	%	23.1

Task: Lab note: need inhibition for "CNC(=O)c1cncc(/C=C/c2ccccc2Cl)c1" on Hepatocyte growth factor receptor (Homo sapiens) (UniProt P08581), anyone have it?
Result: 4.48
